Molecular target: SARS-CoV-2 nucleocapsid protein (N) (SARS-CoV-2, UniProt P0DTC9 1-419)
Assay: BLI
Assign Kd to each entry below.
Numbers only, in nM.

The cases that follow already have their Kd on record.
binder	measured attribute	units label	reported measurement
CXCL11 (ligand) FPMFKRGRCLCIGPGVKAVKVADIEKASIMYPSNNCDKIEVIITLKENKGQRCLNPKSKQARLIIKKVERKNF	Kd	nM	130
CCL26 (ligand) TRGSDISKTCCFQYSHKPLPWTWVRSYEFTSNSCSQRAVIFTTKRGKKVCTHPRKKWVQKYISLLKTPKQL	Kd	nM	26

As a next step, examine the binder that follows.
# input Dear colleague, I am looking for the recorded Kd of the following binder: CXCL9 (ligand) TPVVRKGRCSCISTNQGTIHLQSLKDLKQFAPSPSCEKIEIIATLKNGVQTCLNPDSADVKELIKKWEKQVSQKKKQKNGKKHQKKKVLKVRKSQRSRQKKTT
# output 12
